- PROTOCOL_NOTES: NFAT Signaling Pathway (AID 444);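 note: carbachol stimulus at about its EC50 of 1 µM final; % is set by controls: 0 for no effect and ±100 for the full control effect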
- SETUP_CONDITIONS: Jurkat NFAT-bla M1, carbachol, beta-lactamase ratio, 5 h; at 17.2 µM (top of the series)
Inconclusive results are not listed.
Catalogue of activity change, negative = inhibition values
Report as a plain number; the unit % is understood.

Below, each entry is followed by its recorded activity change, negative = inhibition result.
# COMPOUND_SMILES, activity change, negative = inhibition (%)
data = [
    ("NC12CC3CC(CC(C3)C1)C2", 5.54),
    ("CN(C)CCCN1c2ccccc2CCc2ccc(Cl)cc21", -83),
]

Alright, here's another molecule for you.
The molecule CCCCc1oc2ccccc2c1C(=O)c1cc(I)c(OCCN(CC)CC)c(I)c1 showed activity change, negative = inhibition equal to 4.27

---

- PROTOCOL_NOTES: qHTS profiling for inhibitors of Plasmodium falciparum proliferation (AID 504749);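 note: 0% = DMSO vehicle and full inhibition = artemisinin control; nearly all actives have a fitted effect of over 60% in size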
- SETUP_CONDITIONS: P. falciparum in erythrocytes, SYBR Green DNA, 72 h; at 28.7 µM (top of the series); parasite line B
Results filed as inconclusive are left out.
Catalogue of activity, negative = inhibition values
Report as a plain number; the unit % is understood.

Below, each entry is followed by its recorded activity, negative = inhibition result.
# MOLECULE, activity, negative = inhibition [%]
records = [
    ("C[C@](N)(Cc1ccc(O)c(O)c1)C(=O)O", -9.27),
    ("Cn1cnc2c1c(=O)[nH]c(=O)n2C", -0.248),
    ("COc1ccccc1OCC(O)CN1CCN(CC(=O)Nc2c(C)cccc2C)CC1 (stereo unspecified)", -6.5),
    ("CC[N+](CC)(CC)CCOc1cccc(OCC[N+](CC)(CC)CC)c1OCC[N+](CC)(CC)CC", 10.3),
    ("Nc1nnc(-c2cccc(Cl)c2Cl)c(N)n1", -20),
]

Alright, here's another molecule for you.
The molecule CN(C)CCCN1c2ccccc2CCc2ccc(Cl)cc21 showed activity, negative = inhibition equal to -29.1

---

- PROTOCOL_NOTES: qHTS of pediatric cancer cell lines to identify multiple opportunities for drug repurposing: Primary screen for MG 63 (6-TG R) cells (AID 1347105); note: nearly all actives have a fitted effect of over 50% in size
- SETUP_CONDITIONS: MG 63 (6-TG R) viability, CellTiter-Glo, 48 h; series mostly up to 46 µM
Records with an inconclusive call do not appear. Active and inactive are the calls of the source. Calls come from the whole dose curve; as a rule, active = well fitted cell-killing curve with a large enough effect; inconclusive = small, poorly fitted or top-dose-only effect; inactive = no such curve, though single readings can be large or run the other way.
Return exactly one item of True for active, False for inactive

Example results:
# COMPOUND, ASSIGNED_LABEL
rows = [
    ("Clc1ccccc1C(c1ccccc1)(c1ccccc1)n1ccnc1", "False"),
    ("CN1C(C(=O)Nc2ccccn2)=C(O)c2ccccc2S1(=O)=O", "False"),
    ("CN(Cc1cnc2nc(N)nc(N)c2n1)c1ccc(C(=O)N[C@@H](CCC(=O)O)C(=O)O)cc1", "False"),
    ("CC(C(=O)O)c1cccc(C(=O)c2ccccc2)c1 (stereo not drawn)", "False"),
    ("CC1(CN2CCC(n3c(=O)[nH]c4ccccc43)CC2)OCc2ccccc2-n2cccc21 (stereo not drawn)", "False"),
    ("NCCc1cnc[nH]1", "False"),
    ("Nc1ccn([C@H]2CC[C@@H](CO)O2)c(=O)n1", "False"),
    ("CC1COc2c(N3CCN(C)CC3)c(F)cc3c(=O)c(C(=O)O)cn1c23 (stereo not drawn)", "False"),
    ("C[C@@H]1CC(=O)NN=C1c1ccc(NN=C(C#N)C#N)cc1", "True"),
    ("N[C@@H](Cc1c[nH]c2ccc(O)cc12)C(=O)O", "False"),
]

Read the next record carefully.
Name the outcome recorded for CCOC(=O)Nc1ccc(NCc2ccc(F)cc2)nc1N in the assay.
False
